Tested on: U2OS
Assay: Multiplex assay against U2OS
Type: toxicity, cell-based
Conditions: human, 48 h, 1 µM, compound concentration 1 uM, replicate 1
Documented Population Fragmented Nuclei (%) across a set of compounds

compound | test.value
Cl.O=c1c2cccn2c2ccccc2n1CCCN1CCC(c2ccc(Cl)cc2)CC1 | 6%
Cl.Oc1ccc2c3c1O[C@H]1c4[nH]c5c(c4C[C@@]4(O)[C@@H](C2)N(CC2CC2)CC[C@]314)C[C@@]1(O)[C@H]2Cc3ccc(O)c4c3[C@@]1(CCN2CC1CC1)[C@H]5O4 | 4%
CN1C2CCC1CC(OC(c1ccc(F)cc1)c1ccc(F)cc1)C2.Cl (stereo not drawn) | 6%
C=C1/C(=C\C=C2/CCC[C@]3(C)[C@@H]([C@H](C)/C=C/[C@H](C)C(C)C)CC[C@@H]23)C[C@@H](O)C[C@@H]1O [DOXERCALCIFEROL] | 4%
CCOc1cc(C(=O)N2CCC(N3CCN(C)CC3)CC2)ccc1Nc1ncc2c(n1)N(C1CCCC1)c1ccccc1C(=O)N2C | 15%

Form: compound = O=C(Nc1ccc(-n2nc(-c3cccnc3)cc2C(F)(F)F)cn1)c1ccc(-c2ccccc2)c(F)c1 [BI 2049] ; Population Fragmented Nuclei (%) = 9%

Form field Population Fragmented Nuclei (%), entry CCOC(=O)c1c(C)[nH]c2ccc3c(c12)CN1CCc2cc(OC)ccc2C1O3 (stereo not drawn) : 7%

Please fill in: Population Fragmented Nuclei (%) reported for CCCS(=O)(=O)c1nc(NC2CC2)cc(-c2ccc3c(ccn3C3CC(C)(C)NC(C)(C)C3)c2)n1 = 16%

----------
Listing: Population Hoechst High Intensity Objects (%) of selected compounds
System: HEK-293T
Assay: Multiplex assay against HEK293T
Format: toxicity, cell-based
Settings: human, 12 h, 1 µM, compound concentration 1 uM, replicate 2
Respond with the bare value in %.

Sample answers from the record:
compound | test.value
CCCn1c(=O)c2[nH]c(-c3cnn(Cc4cccc(C(F)(F)F)c4)c3)nc2n(CC)c1=O [GS 6201] | 5
S=C(NCCCc1c[nH]cn1)NCCCN(Cc1ccc(Cl)c(Cl)c1)c1ccc(Br)cn1 | 3
C[C@H]1Oc2cc(cnc2N)-c2c(nn(C)c2C#N)CN(C)C(=O)c2ccc(F)cc21 [LORLATINIB] | 2
CCCS(=O)(=O)Nc1ccc(F)c(C(=O)c2c[nH]c3ncc(Cl)cc23)c1F [PLX-4720] | 2
CCn1c(=O)c(-c2ccc(-c3cncs3)cc2Cl)cc2cnc(Nc3ccc(N4CCN(C)CC4)cc3)nc21 | 2

// compound COC(=N)c1nc2ccc3ncnc(Nc4ccc(OC)cc4F)c3c2s1 , assay HEK-293T, Population Hoechst High Intensity Objects (%) value: 5

The reported Population Hoechst High Intensity Objects (%) value, HEK-293T, for COc1cccc2cc(-c3nc([C@H]4CC[C@H](C(=O)O)CC4)n4ncnc(N)c34)[nH]c12 [OSI-027] reads 6

----------
Tested on: HEK-293T
Assay: Multiplex assay against HEK293T
Assay type: toxicity, cell-based
Conditions: human, 48 h, 10 µM, compound concentration 10 uM, replicate 2
Reported Population Healthy Nuclei (%) is given for each of the following compounds.
Numeric answer only, unit % assumed.

Reference set (2 entries):
compound.structure.string | target.or.test.system | scale.unit | test.value
Cl.Oc1ccc2c3c1O[C@H]1c4[nH]c5c(c4C[C@@]4(O)[C@@H](C2)N(CC2CC2)CC[C@]314)C[C@@]1(O)[C@H]2Cc3ccc(O)c4c3[C@@]1(CCN2CC1CC1)[C@H]5O4 | HEK-293T | % | 83
O=C1N/C(=N/c2ccccc2F)S/C1=C\c1ccc(C(=O)O)cc1 | HEK-293T | % | 83

Record Cl.O=c1c2cccn2c2ccccc2n1CCCN1CCC(c2ccc(Cl)cc2)CC1 , field Population Healthy Nuclei (%): 42

Looking up C=C1/C(=C\C=C2/CCC[C@]3(C)[C@@H]([C@H](C)/C=C/[C@H](C)C(C)C)CC[C@@H]23)C[C@@H](O)C[C@@H]1O , I see its Population Healthy Nuclei (%) listed as 79

According to the records, this compound O=C(Nc1ccc(-c2ccnc(Nc3ccc(N4CCOCC4)cc3)n2)cc1)[C@@H]1CCCN1 displays Population Healthy Nuclei (%) of 60

----------
Tested on: U2OS
Experiment: Multiplex assay against U2OS
Format: toxicity, cell-based
Conditions: human, 24 h, 10 µM, compound concentration 10 uM, replicate 2
Listed here: items and their measured Population Fragmented Nuclei (%).
// units = %; emit number, no label

molecule | target.or.test.system | test.value
CCN1CCN(c2ccc(Nc3cc(N(C)C(=O)Nc4c(Cl)c(OC)cc(OC)c4Cl)ncn3)cc2)CC1 | U2OS | 10

Measured Population Fragmented Nuclei (%), CCc1cccc(CC)c1NC(=O)c1nn(C)c2c1CCc1cnc(Nc3ccc(N4CCN(C)CC4)cc3OC)nc1-2 : 14

# Population Fragmented Nuclei (%) (molecule: CNc1cc(Oc2cc(C(=O)Nc3cc(N4CCN(C)CC4)cc(C(F)(F)F)c3)ccc2C)ncn1 ) is 16

Sure, the documented Population Fragmented Nuclei (%) for CN1CCN(C(=O)C(C)(C)c2ccc(C(=O)Nc3cn4cc(-c5cc(C(C)(C)C)cc(C(C)(C)C)c5)ccc4n3)cc2)CC1 is 17

So, CN(C)C(=O)C(CCN1CCC(O)(c2ccc(Cl)cc2)CC1)(c1ccccc1)c1ccccc1.Cl [LOPERAMIDE HYDROCHLORIDE] ? Its Population Fragmented Nuclei (%) was 10

// sample COCC(=O)NC/C=C/c1ccc2ncnc(Nc3ccc(Oc4ccc(C)nc4)c(C)c3)c2c1 , its Population Fragmented Nuclei (%) was 16

Record summary for CCN1CCN(Cc2ccc(Nc3ncc(F)c(-c4cc(F)c5nc(C)n(C(C)C)c5c4)n3)nc2)CC1.CS(=O)(=O)O : reported Population Fragmented Nuclei (%) = 27

----------
Tested on: HEK-293T
Test: Multiplex assay against HEK293T
Format: toxicity, cell-based
Details: human, 12 h, 1 µM, compound concentration 1 uM, replicate 2
value.type: Population Apoptotic (%)
Give a bare numeral; the unit % is implied.

// solved cases for Population Apoptotic (%) follow
molecule | test.value
CCCS(=O)(=O)c1nc(NC2CC2)cc(-c2ccc3c(ccn3C3CC(C)(C)NC(C)(C)C3)c2)n1 | 18
CCOC(=O)c1c(C)[nH]c2ccc3c(c12)CN1CCc2cc(OC)ccc2C1O3 (configuration not stated) | 36
O=C(Nc1cccnn1)N1CCC(=Cc2cccc(Oc3ccc(C(F)(F)F)cn3)c2)CC1 | 17
CCc1cccc(CC)c1NC(=O)c1nn(C)c2c1CCc1cnc(Nc3ccc(N4CCN(C)CC4)cc3OC)nc1-2 | 19
COc1cccc2cc(-c3nc([C@H]4CC[C@H](C(=O)O)CC4)n4ncnc(N)c34)[nH]c12 | 9

Measured Population Apoptotic (%) of CN[C@@H]1C[C@H]2O[C@@](C)([C@@H]1OC)n1c3ccccc3c3c4c(c5c6ccccc6n2c5c31)C(=O)NC4 : 9

Short answer for CCn1cc(-c2ccnc3[nH]c(-c4cccc(CN(C)C)c4)cc23)c(-c2ccc(NC(=O)N(C)C)cc2)n1 : Population Apoptotic (%) was 8

Record Cl.Oc1ccc2c3c1O[C@H]1c4[nH]c5c(c4C[C@@]4(O)[C@@H](C2)N(CC2CC2)CC[C@]314)C[C@@]1(O)[C@H]2Cc3ccc(O)c4c3[C@@]1(CCN2CC1CC1)[C@H]5O4 , field Population Apoptotic (%): 10

// field: Population Apoptotic (%); key: CCOc1cc2ncc(C#N)c(Nc3ccc(OCc4ccccn4)c(Cl)c3)c2cc1NC(=O)/C=C/CN(C)C ; value = 21

response.value for COc1ccc(-c2ccc3c(N4CCOCC4)nc(N4C[C@@H](C)O[C@@H](C)C4)nc3n2)cc1CO (field: Population Apoptotic (%)) = 8

Lab book: Population Apoptotic (%) of CCN1CCN(c2ccc(Nc3cc(N(C)C(=O)Nc4c(Cl)c(OC)cc(OC)c4Cl)ncn3)cc2)CC1 noted as 14

Consider CNC(=O)c1ccc(Nc2nc(OC3CCCC3)c3c(-c4ccc5nc(C)oc5c4)c[nH]c3n2)c(OC)c1 . Its measured Population Apoptotic (%) is 37

----------
System: HEK-293T
Test: Multiplex assay against HEK293T
Format: toxicity, cell-based
Conditions: human, 12 h, 10 µM, compound concentration 10 uM, replicate 2
Label key: Y means Population Mitochondria Different-Phenotype (%) under 60%; N means Population Mitochondria Different-Phenotype (%) of 60% or more.

Worked cases, answers included:
compound | class
O=C(Nc1ccc(-c2ccnc(Nc3ccc(N4CCOCC4)cc3)n2)cc1)[C@@H]1CCCN1 | N
COc1cccc2cc(-c3nc([C@H]4CC[C@H](C(=O)O)CC4)n4ncnc(N)c34)[nH]c12 [OSI-027] | Y
CCN1CCN(c2ccc(Nc3cc(N(C)C(=O)Nc4c(Cl)c(OC)cc(OC)c4Cl)ncn3)cc2)CC1 [INFIGRATINIB] | Y

Task item: Please state whether Population Mitochondria Different-Phenotype (%) is below 60% for Cc1ccc(C(=O)Nc2cccc(C(F)(F)F)c2)cc1Nc1nc(-c2cccnc2)nc2c1cnn2C
Reply: N

Task item: For this compound, is Population Mitochondria Different-Phenotype (%) lower than 60%? Cc1ccc2nc(NCCN)c3ncc(C)n3c2c1.O=C(O)C(F)(F)F.O=C(O)C(F)(F)F
Reply: Y

Task item: Item COc1cc2ncnc(Nc3ccc(F)c(Cl)c3)c2cc1NC(=O)/C=C/CN1CCCCC1 [DACOMITINIB ANHYDROUS] : Population Mitochondria Different-Phenotype (%) beneath 60%, strictly?
Reply: Y

Task item: Is the reported Population Mitochondria Different-Phenotype (%) for CN1C2CCC1CC(OC(c1ccc(F)cc1)c1ccc(F)cc1)C2.Cl (stereo unspecified) strictly below 60%?
Reply: N

Task item: Is it true that Population Mitochondria Different-Phenotype (%) reported for CCOC(=O)c1c(C)[nH]c2ccc3c(c12)CN1CCc2cc(OC)ccc2C1O3 (stereo unspecified) is less than 60%?
Reply: N

Task item: Does CCn1c(=O)c(-c2ccc(-c3cncs3)cc2Cl)cc2cnc(Nc3ccc(N4CCN(C)CC4)cc3)nc21 have Population Mitochondria Different-Phenotype (%) strictly under 60%?
Reply: Y

Task item: Below 60% on Population Mitochondria Different-Phenotype (%)? Entry NC(=O)c1cccc(-c2cc(Nc3ccc(OC(F)(F)F)cc3)ncn2)c1
Reply: Y

Task item: Dear reviewer, please state whether CCc1cccc(CC)c1NC(=O)c1nn(C)c2c1CCc1cnc(Nc3ccc(C(=O)NC4CCN(C)CC4)cc3OC(F)(F)F)nc1-2 has Population Mitochondria Different-Phenotype (%) strictly beneath 60%.
Reply: N
